# Tested on: AMBEL, Ragweed, Common, Ambrosia artemiisifolia, L.
# measurementProtocol: Preemergence herbicidal evaluation (Example 148)
# Format: in vivo
# particulars: rate 0.125 kg/ha, rating scale 0-9, two to four weeks after treatment
metric: Preemergence herbicidal rating AMBEL
Enter the number alone.

Observe how each entry below is paired with its result.
Cn1c(C(F)(F)F)cc(=O)n(-c2cc(C(=O)NS(=O)(=O)NCc3cccs3)c(Cl)cc2F)c1=O    9.0
C#CCNS(=O)(=O)NC(=O)c1cc(-n2c(=O)cc(C(F)(F)F)n(C)c2=O)c(F)cc1Cl    8.0
CCNS(=O)(=O)NC(=O)c1cc(-n2c(=O)cc(C(F)(F)F)n(C)c2=O)c(F)cc1Cl    1.0

Ask: // Input: CC(C)CCNS(=O)(=O)NC(=O)c1cc(-n2c(=O)cc(C(F)(F)F)n(C)c2=O)c(F)cc1Cl . Output its Preemergence herbicidal rating AMBEL only.
Result: 9.0

Ask: // Input: CCC(C)N(C)S(=O)(=O)NC(=O)c1cc(-n2c(=O)cc(C(F)(F)F)n(C)c2=O)c(F)cc1Cl (stereo not shown) . Output its Preemergence herbicidal rating AMBEL only.
Result: 8.0

Ask: // Input: CCCN(CC)S(=O)(=O)NC(=O)c1cc(-n2c(=O)cc(C(F)(F)F)n(C)c2=O)c(F)cc1Cl . Output its Preemergence herbicidal rating AMBEL only.
Result: 9.0

Ask: // Input: CCCCN(C)S(=O)(=O)NC(=O)c1cc(-n2c(=O)cc(C(F)(F)F)n(C)c2=O)c(F)cc1Cl . Output its Preemergence herbicidal rating AMBEL only.
Result: 8.0

* * *

# System: ZEAMX, Field corn, Zea mays L.
# measurementProtocol: Preemergence herbicidal evaluation (Example 148)
# Assay type: in vivo
# particulars: rate 0.25 kg/ha, rating scale 0-9, two to four weeks after treatment
// reported Preemergence herbicidal rating ZEAMX per item
Enter the number alone.

CCC(C)NS(=O)(=O)NC(=O)c1cc(-n2c(=O)cc(C(F)(F)F)n(C)c2=O)c(F)cc1Cl (stereo not shown) [Example 64]    2.0

Ask: // Input: C#CCN(C)S(=O)(=O)NC(=O)c1cc(-n2c(=O)cc(C(F)(F)F)n(C)c2=O)c(F)cc1Cl [Example 57] . Output its Preemergence herbicidal rating ZEAMX only.
Result: 0.0

Ask: // Input: CN(CCC#N)S(=O)(=O)NC(=O)c1cc(-n2c(=O)cc(C(F)(F)F)n(C)c2=O)c(F)cc1Cl [Example 84] . Output its Preemergence herbicidal rating ZEAMX only.
Result: 1.0

Ask: // Input: CC(C)N(C)S(=O)(=O)NC(=O)c1cc(-n2c(=O)cc(C(F)(F)F)n(N)c2=O)c(F)cc1Cl [Example 76] . Output its Preemergence herbicidal rating ZEAMX only.
Result: 1.0

Ask: // Input: CCCCN(C)S(=O)(=O)NC(=O)c1cc(-n2c(=O)cc(C(F)(F)F)n(C)c2=O)c(F)cc1Cl [Example 83] . Output its Preemergence herbicidal rating ZEAMX only.
Result: 2.0

Ask: // Input: CC(C)N(C(C)C)S(=O)(=O)NC(=O)c1cc(-n2c(=O)cc(C(F)(F)F)n(C)c2=O)c(F)cc1Cl [Example 60] . Output its Preemergence herbicidal rating ZEAMX only.
Result: 0.0

Ask: // Input: C#CCNS(=O)(=O)NC(=O)c1cc(-n2c(=O)cc(C(F)(F)F)n(C)c2=O)c(F)cc1Cl [Example 71] . Output its Preemergence herbicidal rating ZEAMX only.
Result: 1.0

* * *

# System: SETVI, Green foxtail, Setaria viridis, (L.)Beau
# measurementProtocol: Preemergence herbicidal evaluation (Example 148)
# Format: in vivo
# particulars: rate 0.125 kg/ha, rating scale 0-9, two to four weeks after treatment
// reported Preemergence herbicidal rating SETVI per item
Enter the number alone.

Ask: Provide Preemergence herbicidal rating SETVI, tested on SETVI, Green foxtail, Setaria viridis, (L.)Beau, for CC(C)N(C(C)C)S(=O)(=O)NC(=O)c1cc(-n2c(=O)cc(C(F)(F)F)n(C)c2=O)c(F)cc1Cl .
Result: 5.0

* * *

// reported Postemergence herbicidal rating ABUTH per item
# System: ABUTH, Velvetleaf, Abutilon theophrasti, Medic.
# measurementProtocol: Postemergence herbicidal evaluation (Example 147)
# Type: in vivo
# particulars: rate 0.016 kg/ha, rating scale 0-9, two to three weeks after treatment

Observe how each entry below is paired with its result.
Cn1c(C(F)(F)F)cc(=O)n(-c2cc(C(=O)NS(=O)(=O)NCc3cccs3)c(Cl)cc2F)c1=O    9.0
CCCCN(C)S(=O)(=O)NC(=O)c1cc(-n2c(=O)cc(C(F)(F)F)n(C)c2=O)c(F)cc1Cl    9.0
CCOC(=O)CN(C)S(N)(=O)=O    9.0
CCCNS(=O)(=O)NC(=O)c1cc(-n2c(=O)cc(C(F)(F)F)n(C)c2=O)c(F)cc1Cl    9.0
CC(C)N(C)S(=O)(=O)NC(=O)c1cc(-n2c(=O)cc(C(F)(F)F)n(N)c2=O)c(F)cc1Cl    9.0
COc1cccc(CN(C)S(=O)(=O)NC(=O)c2cc(-n3c(=O)cc(C(F)(F)F)n(C)c3=O)c(F)cc2Cl)c1    9.0

Ask: // Input: CN(Cc1ccccc1)S(=O)(=O)NC(=O)c1cc(-n2c(=O)cc(C(F)(F)F)n(C)c2=O)c(F)cc1Cl . Output its Postemergence herbicidal rating ABUTH only.
Result: 9.0

Ask: // Input: C#CCN(C)S(=O)(=O)NC(=O)c1cc(-n2c(=O)cc(C(F)(F)F)n(C)c2=O)c(F)cc1Cl . Output its Postemergence herbicidal rating ABUTH only.
Result: 2.0

Ask: // Input: CN(Cc1cccc(Cl)c1)S(=O)(=O)NC(=O)c1cc(-n2c(=O)cc(C(F)(F)F)n(C)c2=O)c(F)cc1Cl . Output its Postemergence herbicidal rating ABUTH only.
Result: 9.0

Ask: // Input: CCC(C)N(C)S(=O)(=O)NC(=O)c1cc(-n2c(=O)cc(C(F)(F)F)n(C)c2=O)c(F)cc1Cl (stereo not drawn) . Output its Postemergence herbicidal rating ABUTH only.
Result: 9.0

Ask: // Input: CNS(=O)(=O)NC(=O)c1cc(-n2c(=O)cc(C(F)(F)F)n(C)c2=O)c(F)cc1Cl . Output its Postemergence herbicidal rating ABUTH only.
Result: 9.0

Ask: // Input: CC(C)CCNS(=O)(=O)NC(=O)c1cc(-n2c(=O)cc(C(F)(F)F)n(C)c2=O)c(F)cc1Cl . Output its Postemergence herbicidal rating ABUTH only.
Result: 9.0

* * *

# Test system: CHEAL, Lambsquarters, Chenopodium album, L. Common
# measurementProtocol: Preemergence herbicidal evaluation (Example 148)
# Type: in vivo
# particulars: rate 0.25 kg/ha, rating scale 0-9, two to four weeks after treatment
metric: Preemergence herbicidal rating CHEAL
Enter the number alone.

Observe how each entry below is paired with its result.
CCCNS(=O)(=O)NC(=O)c1cc(-n2c(=O)cc(C(F)(F)F)n(C)c2=O)c(F)cc1Cl    9.0
CC(C)N(C)S(=O)(=O)NC(=O)c1cc(-n2c(=O)cc(C(F)(F)F)n(N)c2=O)c(F)cc1Cl    9.0
CCCN(C)S(=O)(=O)NC(=O)c1cc(-n2c(=O)cc(C(F)(F)F)n(C)c2=O)c(F)cc1Cl    9.0
CCNS(=O)(=O)NC(=O)c1cc(-n2c(=O)cc(C(F)(F)F)n(C)c2=O)c(F)cc1Cl    8.0
C#CCNS(=O)(=O)NC(=O)c1cc(-n2c(=O)cc(C(F)(F)F)n(C)c2=O)c(F)cc1Cl    7.0
CCCCN(C)S(=O)(=O)NC(=O)c1cc(-n2c(=O)cc(C(F)(F)F)n(C)c2=O)c(F)cc1Cl    9.0
CCN(CC)S(=O)(=O)NC(=O)c1cc(-n2c(=O)cc(C(F)(F)F)n(C)c2=O)c(F)cc1Cl    8.0
COc1ccc(CNS(=O)(=O)NC(=O)c2cc(-n3c(=O)cc(C(F)(F)F)n(C)c3=O)c(F)cc2Cl)cc1    9.0
CC(C)CCNS(=O)(=O)NC(=O)c1cc(-n2c(=O)cc(C(F)(F)F)n(C)c2=O)c(F)cc1Cl    9.0
C=CCN(C)S(=O)(=O)NC(=O)c1cc(-n2c(=O)cc(C(F)(F)F)n(C)c2=O)c(F)cc1Cl    9.0

Ask: Provide Preemergence herbicidal rating CHEAL, tested on CHEAL, Lambsquarters, Chenopodium album, L. Common, for CCN(C)S(=O)(=O)NC(=O)c1cc(-n2c(=O)cc(C(F)(F)F)n(C)c2=O)c(F)cc1Cl .
Result: 9.0

Ask: Provide Preemergence herbicidal rating CHEAL, tested on CHEAL, Lambsquarters, Chenopodium album, L. Common, for Cn1c(C(F)(F)F)cc(=O)n(-c2cc(C(=O)NS(N)(=O)=O)c(Cl)cc2F)c1=O .
Result: 9.0
